# assay_system: UniProt:P00533
# experimental_protocol: Biochemical EGFR kinase assay (Lance Ultra TR-FRET), wildtype
# experimental_conditions: ATP at Km; read-out: IC50 WT, Km ATP
parameter: IC50 (nM)
A number alone suffices; assume nM.

{"molecule": "C[C@]1(O)CC[C@@H](Nc2cc(Nc3ccnc(-c4cnn(S(=O)(=O)C5CC5)c4)n3)ncc2-c2ccc(OCCO)cn2)CC1 [Example 205]", "assay_system": "UniProt:P00533", "data_value": 2}

Now look at this one.
Query :: Could you tell me which IC50 is on file for CN1CCC(Oc2ccc(-c3cnc(Nc4ccnc(-c5cnn(S(=O)(=O)C6CC6)c5)n4)cc3N[C@H]3CC[C@@](C)(O)CC3)nn2)CC1 [Example 269] ?
Result :: 2.6

###

# assay_system: EGFR del19/T790M/C797S (Homo sapiens, UniProt P00533, C797S/DEL746-750/T790M)
# Sequence (P00533 with tags, fused parts or gaps DEL746-750/T790M/C797S): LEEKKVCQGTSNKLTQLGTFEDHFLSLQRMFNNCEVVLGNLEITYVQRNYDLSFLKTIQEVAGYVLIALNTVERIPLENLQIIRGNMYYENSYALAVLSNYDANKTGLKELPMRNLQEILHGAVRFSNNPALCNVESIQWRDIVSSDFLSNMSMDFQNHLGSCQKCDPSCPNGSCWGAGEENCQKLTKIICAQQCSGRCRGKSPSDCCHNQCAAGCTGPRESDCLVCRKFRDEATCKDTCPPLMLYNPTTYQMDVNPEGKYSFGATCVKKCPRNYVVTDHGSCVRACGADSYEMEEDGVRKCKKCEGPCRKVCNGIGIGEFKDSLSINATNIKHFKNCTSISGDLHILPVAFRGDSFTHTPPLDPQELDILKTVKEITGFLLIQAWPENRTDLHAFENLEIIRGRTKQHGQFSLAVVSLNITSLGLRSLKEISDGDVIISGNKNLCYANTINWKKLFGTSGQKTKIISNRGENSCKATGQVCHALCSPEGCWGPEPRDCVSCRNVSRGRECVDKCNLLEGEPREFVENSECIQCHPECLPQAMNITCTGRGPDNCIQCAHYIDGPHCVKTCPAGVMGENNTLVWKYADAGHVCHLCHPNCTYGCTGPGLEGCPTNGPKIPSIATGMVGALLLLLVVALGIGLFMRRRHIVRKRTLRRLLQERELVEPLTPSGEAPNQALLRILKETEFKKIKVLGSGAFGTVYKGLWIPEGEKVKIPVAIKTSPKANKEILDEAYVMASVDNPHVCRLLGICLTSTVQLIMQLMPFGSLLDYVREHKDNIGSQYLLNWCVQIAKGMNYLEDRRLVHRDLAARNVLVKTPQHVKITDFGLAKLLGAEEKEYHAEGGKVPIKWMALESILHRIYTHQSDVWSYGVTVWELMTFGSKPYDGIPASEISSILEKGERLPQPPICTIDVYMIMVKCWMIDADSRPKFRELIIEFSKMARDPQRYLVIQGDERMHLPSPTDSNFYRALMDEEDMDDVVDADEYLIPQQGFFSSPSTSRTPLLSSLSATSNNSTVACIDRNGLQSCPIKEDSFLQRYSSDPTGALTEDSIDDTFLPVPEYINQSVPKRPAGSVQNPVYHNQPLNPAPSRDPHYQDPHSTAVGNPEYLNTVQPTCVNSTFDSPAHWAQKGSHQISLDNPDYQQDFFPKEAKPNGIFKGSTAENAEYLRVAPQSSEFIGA
# experimental_protocol: Biochemical EGFR kinase assay (Lance Ultra TR-FRET), triple mutant del19/T790M/C797S
# experimental_conditions: Km ATP; read-out: IC50 del19/T790M/C797S (nM) Km ATP
Catalogue of log10 IC50 readings, one per entry.
All values: log10 IC50 [nM].

Example compounds with recorded log10 IC50:
{"compound": "C[C@]1(O)CC[C@@H](Nc2cc(Nc3ccnc(-c4cnn(S(=O)(=O)C5CC5)c4)n3)ncc2-c2ccc(N3CC(F)(F)C3)nn2)CC1", "parameter": "log10 IC50", "data_value": -0.52}
{"compound": "Cc1cnc(-c2cnc(Nc3ccnc(-c4cnn(S(=O)(=O)C5CC5)c4)n3)cc2N[C@H]2CC[C@@](C)(O)CC2)cn1", "parameter": "log10 IC50", "data_value": -0.52}
{"compound": "CN1CCC(Oc2ccc(-c3cnc(Nc4ccnc(-c5cnn(CC(F)F)c5)n4)cc3NC3CCC(F)(F)C3)nc2)CC1 (stereo not drawn)", "parameter": "log10 IC50", "data_value": -1.00}
{"compound": "CC(O)c1cccc(-c2cnc(Nc3ccnc(-c4cnn(S(=O)(=O)C5CC5)c4)n3)cc2NC2CCC(C)(O)CC2)n1 (stereo not drawn)", "parameter": "log10 IC50", "data_value": 0.20}
{"compound": "COC1CN(c2ccc(-c3cnc(Nc4ccnc(-c5cnn(S(=O)(=O)C6CC6)c5)n4)cc3N[C@H]3CC[C@@H](CO)CC3)nc2)C1", "parameter": "log10 IC50", "data_value": -0.30}

Query :: Give the reported log10 IC50 for CC(C)(O)c1ccnc(-c2cnc(Nc3ccnc(-c4cnn(S(=O)(=O)C5CC5)c4)n3)cc2N[C@H]2CC[C@@](C)(O)CC2)c1 (system: EGFR del19/T790M/C797S (Homo sapiens, UniProt P00533, C797S/DEL746-750/T790M)).
Result :: -0.40

Query :: Give the reported log10 IC50 for O=S(=O)(C1CC1)n1cc(-c2nccc(Nc3cc(N[C@H]4CC[C@@H](CO)CC4)c(-c4ccc(CN5CCC(O)CC5)cn4)cn3)n2)cn1 (system: EGFR del19/T790M/C797S (Homo sapiens, UniProt P00533, C797S/DEL746-750/T790M)).
Result :: -1.00

Query :: Give the reported log10 IC50 for C[C@]1(O)CC[C@@H](Nc2cc(Nc3ccnc(-c4cnn(S(=O)(=O)C5CC5)c4)n3)ncc2-c2ccc(C(F)(F)F)nn2)CC1 (system: EGFR del19/T790M/C797S (Homo sapiens, UniProt P00533, C797S/DEL746-750/T790M)).
Result :: -0.10
